Tested on: Candida parapsilosis CGMCC 2.3989
readout label: MIC

INSERT INTO measurements (structure_string, assay_result) VALUES
  ('CC[C@H](C)[C@H](NC(=O)[C@H](CCCN=C(N)N)NC(=O)[C@H](C)NC(=O)[C@H](C)N)C(=O)N[C@H](C(=O)N[C@@H](CC(C)C)C(=O)N[C@@H](CCCN=C(N)N)C(=O)N[C@@H](Cc1ccc(O)cc1)C(=O)N[C@@H](CCCN=C(N)N)C(=O)N[C@@H](Cc1ccccc1)C(=O)N[C@@H](CCCN=C(N)N)C(N)=O)[C@@H](C)CC', '≥ 64 µM'),
  ('CC[C@H](C)[C@H](NC(=O)[C@H](CCCCN)NC(=O)[C@H](C)NC(=O)[C@H](C)N)C(=O)N[C@H](C(=O)N[C@@H](CC(C)C)C(=O)N[C@@H](CC(N)=O)C(=O)N1CCC[C@H]1C(=O)N[C@@H](CCCCN)C(=O)N[C@@H](Cc1ccccc1)C(=O)N[C@@H](CCCN=C(N)N)C(=O)N[C@H]1CSSC[C@@H](C(N)=O)NC(=O)[C@H](Cc2ccccc2)NC(=O)[C@H](C)NC(=O)[C@H](C)NC(=O)[C@H](CCCCN)NC1=O)[C@@H](C)CC', '≥ 128 µM'),
  ('CC[C@H](C)[C@H](NC(=O)[C@H](CCCN=C(N)N)NC(=O)[C@H](C)NC(=O)[C@H](C)N)C(=O)N[C@H](C(=O)N[C@@H](CC(C)C)C(=O)N[C@@H](CCCN=C(N)N)C(=O)N1CCC[C@H]1C(=O)N[C@@H](CCCN=C(N)N)C(=O)N[C@@H](Cc1ccccc1)C(=O)N[C@@H](CCCN=C(N)N)C(N)=O)[C@@H](C)CC', '≥ 128 µM');

Next compound, please.
[Q] Tell me its MIC given CC[C@H](C)[C@H](N)C(=O)N[C@@H](Cc1cnc[nH]1)C(=O)N[C@@H](Cc1cnc[nH]1)C(=O)N[C@H](C(=O)N[C@@H](Cc1cnc[nH]1)C(=O)N[C@@H](Cc1cnc[nH]1)C(=O)N[C@@H](Cc1cnc[nH]1)C(=O)N[C@H](C(=O)N[C@@H](Cc1cnc[nH]1)C(=O)N[C@@H](Cc1cnc[nH]1)C(=O)N[C@H](C(=O)N[C@@H](Cc1cnc[nH]1)C(=O)N[C@@H](Cc1cnc[nH]1)C(=O)N[C@@H](Cc1cnc[nH]1)C(N)=O)[C@@H](C)CC)[C@@H](C)CC)[C@@H](C)CC as the entry.
[A] 2 µM

###

Test system: Bacillus subtilis ATCC 6633
readout label: MIC (µM)
Express it in µM; write the number only.

[Q] Provide MIC, recorded with Bacillus subtilis ATCC 6633, of CC[C@H](C)[C@H](NC(=O)[C@H](CC(C)C)NC(=O)[C@@H](N)Cc1ccccc1)C(=O)NCC(=O)N[C@@H](CCSC)C(=O)N[C@H](C(=O)N[C@@H](CCC(N)=O)C(=O)NCC(=O)N[C@@H](CC(C)C)C(=O)N[C@H](C(=O)N[C@H]1CSSC[C@@H](C(=O)O)NC(=O)[C@H](CCCCN)NC(=O)[C@H](CCCN=C(N)N)NC(=O)[C@H]([C@@H](C)O)NC(=O)[C@H]([C@@H](C)CC)NC(=O)[C@H](CC(C)C)NC1=O)[C@@H](C)CC)[C@@H](C)O
[A] 13.1

###

Tested on: Escherichia coli ATCC 25922
readout label: MIC (µM)
Give the number; µM is assumed, so skip it.

INSERT INTO measurements (structure_string, assay_target, assay_result) VALUES
  ('CC(C)C[C@H](NC(=O)[C@H](CC(C)C)NC(=O)[C@H](CCCCN)NC(=O)[C@H](CC(C)C)NC(=O)[C@H](CC(C)C)NC(=O)[C@H](CCCCN)NC(=O)[C@H](CC(C)C)NC(=O)[C@H](CC(C)C)NC(=O)[C@H](CCCCN)NC(=O)[C@H](CC(C)C)NC(=O)[C@H](CC(C)C)NC(=O)[C@H](CCCCN)NC(=O)[C@H](CC(C)C)NC(=O)[C@@H](N)CCCCN)C(=O)N[C@@H](CCCCN)C(N)=O', 'Escherichia coli ATCC 25922', 3);

[Q] Look up and report measured MIC (Escherichia coli ATCC 25922) for the following compound: CC[C@H](C)[C@H](NC(=O)[C@@H]1CCCN1C(=O)[C@@H](NC(=O)[C@@H](N)C(C)C)[C@@H](C)CC)C(=O)N[C@H](C(=O)N[C@@H](CO)C(=O)NCC(=O)N[C@@H](CC(C)C)C(=O)N[C@@H](CC(C)C)C(=O)N[C@@H](CO)C(=O)N[C@@H](CO)C(=O)N[C@@H](CC(C)C)C(=O)N[C@@H](CC(C)C)C(N)=O)C(C)C
[A] 9.54

###

Quick record: MIC, Staphylococcus aureus ATCC 6538.
Value expressed in µM; do not type the unit.

INSERT INTO assay_data (structure_string, assay_target, readout_label, assay_result) VALUES
  ('CC(C)[C@H](NC(=O)[C@H](CCCCN)NC(=O)[C@H](Cc1ccccc1)NC(=O)[C@@H](NC(=O)[C@@H](NC(=O)[C@H](CCCCN)NC(=O)[C@H](CCCCN)NC(=O)[C@@H](N)CCCCN)C(C)C)C(C)C)C(=O)N[C@@H](CCCCN)C(=O)N[C@@H](Cc1ccccc1)C(=O)N[C@@H](CCCCN)C(=O)N[C@@H](CCCCN)C(=O)N[C@@H](CCCCN)C(N)=O', 'Staphylococcus aureus ATCC 6538', 'MIC', 1.91);

[Q] Give MIC for the following compound: CC[C@H](C)[C@H](NC(=O)[C@H](CCCCN)NC(=O)[C@@H](NC(=O)[C@H](C)NC(=O)[C@H](CC(C)C)NC(=O)[C@H](CCCCN)NC(=O)[C@H](Cc1ccccc1)NC(=O)[C@H](CC(C)C)NC(=O)[C@H](C)NC(=O)CNC(=O)[C@H](Cc1ccccc1)NC(=O)[C@@H](N)Cc1ccccc1)[C@@H](C)O)C(=O)N[C@H](C(=O)N1CCC[C@H]1C(=O)N[C@@H](CO)C(=O)N[C@@H](CC(C)C)C(=O)N[C@@H](Cc1ccccc1)C(=O)N[C@@H](CCCN=C(N)N)C(=O)O)[C@@H](C)CC
[A] 1.5

###

These molecules were tested on Staphylococcus epidermidis; MIC is the recorded read-out.
The response must be a number in µM with no trailing unit.

# example entries with known answers
INSERT INTO measurements (structure_string, assay_result) VALUES
  ('CC(C)C[C@H](NC(=O)[C@H](CCCCN)NC(=O)[C@H](CCCN=C(N)N)NC(=O)[C@H](Cc1ccccc1)NC(=O)[C@H](Cc1ccccc1)NC(=O)[C@H](CCCCN)NC(=O)[C@H](CCCN=C(N)N)NC(=O)[C@H](CC(C)C)NC(=O)[C@H](CC(C)C)NC(=O)[C@@H](N)CCCN=C(N)N)C(=O)N[C@@H](CCCCN)C(=O)N[C@@H](CCCCN)C(=O)N[C@@H](CO)C(=O)N[C@H](C(=O)O)C(C)C', 17.6),
  ('C[C@@H](O)[C@H](NC(=O)[C@H](CS)NC(=O)[C@H](Cc1ccccc1)NC(=O)[C@H](CS)NC(=O)[C@H](CCCN=C(N)N)NC(=O)[C@H](CCCN=C(N)N)NC(=O)[C@H](CCCN=C(N)N)NC(=O)[C@H](Cc1ccccc1)NC(=O)CNC(=O)[C@H](CCCN=C(N)N)NC(=O)[C@H](CS)NC(=O)[C@H](CC(N)=O)NC(=O)CNC(=O)CNC(=O)[C@H](CO)NC(=O)[C@@H](N)Cc1ccccc1)C(=O)N[C@@H](CCCCN)C(N)=O', 20),
  ('CC[C@H](C)[C@H](NC(=O)[C@@H](NC(=O)[C@H](CO)NC(=O)[C@H](C)NC(=O)[C@@H](NC(=O)[C@H](CCCCN)NC(=O)[C@H](CCCCN)NC(=O)[C@@H](NC(=O)[C@@H](NC(=O)[C@H](CC(=O)O)NC(=O)[C@H](Cc1ccccc1)NC(=O)[C@H](CC(C)C)NC(=O)CN)C(C)C)[C@@H](C)CC)C(C)C)C(C)C)C(=O)N[C@@H](CCCCN)C(=O)N[C@@H](CCCCN)C(=O)N[C@@H](CC(C)C)C(N)=O', 6.83),
  ('CC(C)C[C@H](NC(=O)[C@@H](NC(=O)[C@H](CCCCN)NC(=O)[C@H](CO)NC(=O)[C@H](C)NC(=O)[C@@H](NC(=O)[C@H](CCCCN)NC(=O)[C@H](Cc1ccccc1)NC(=O)[C@H](CC(C)C)NC(=O)[C@H](C)NC(=O)CNC(=O)[C@H](CC(C)C)NC(=O)[C@@H](N)Cc1ccccc1)C(C)C)C(C)C)C(=O)O', 2.23),
  ('CC[C@H](C)[C@H](NC(=O)[C@H](CCCCN)NC(=O)[C@H](CCCCN)NC(=O)[C@H](Cc1ccccc1)NC(=O)[C@H](CCCCN)NC(=O)[C@H](CCCCN)NC(=O)[C@H](Cc1c[nH]c2ccccc12)NC(=O)[C@@H](N)CCCCN)C(=O)NCC(=O)N[C@@H](C)C(=O)N[C@H](C(=O)N[C@@H](CC(C)C)C(=O)N[C@@H](CCCCN)C(=O)N[C@H](C(=O)N[C@@H](CC(C)C)C(=O)O)C(C)C)C(C)C', 0.5);

Could you now look at the following molecule, please?
[Q] Please indicate recorded MIC of CC[C@H](C)[C@H](NC(=O)[C@H](CCCCN)NC(=O)[C@H](CCCCN)NC(=O)[C@H](Cc1ccccc1)NC(=O)[C@H](CCCCN)NC(=O)[C@H](CCCCN)NC(=O)[C@H](Cc1c[nH]c2ccccc12)NC(=O)[C@@H](N)CCCCN)C(=O)NCC(=O)N[C@@H](CCCCN)C(=O)N[C@H](C(=O)N[C@@H](CC(C)C)C(=O)N[C@@H](CCCCN)C(=O)N[C@H](C(=O)N[C@@H](CC(C)C)C(=O)O)C(C)C)C(C)C measured with Staphylococcus epidermidis.
[A] 0.25
